- Test system: 415267-285-R-J2-PDC complex spheroid viability
- assayInfo: Anticancer human tumor 415267-285-R-J2-PDC patient-derived breast carcinoma cell line growth inhibition [POLQ]
- conditionContext: second compound 0.0316 µM; first compound 1 µM; stronger effect = lower value
For each entry below, report its viability, T/C value.
// return numeric value only (unit: %, not printed)

input: Entry under review: Nc1ccn(C2OC(CO)C(O)C2(F)F)c(=O)n1 (stereo not drawn) + COC1C(OC(N)=O)C(O)C(Oc2ccc3c(O)c(NC(=O)c4ccc(O)c(CC=C(C)C)c4)c(=O)oc3c2C)OC1(C)C . Reported viability, T/C?
output: 5.97

input: // query viability, T/C value for entry C=CCn1c(=O)c2cnc(Nc3ccc(N4CCN(C)CC4)cc3)nc2n1-c1cccc(C(C)(C)O)n1 + COC1C(OC(N)=O)C(O)C(Oc2ccc3c(O)c(NC(=O)c4ccc(O)c(CC=C(C)C)c4)c(=O)oc3c2C)OC1(C)C
output: 7.91

input: Quick check: viability, T/C of C#Cc1c(F)ccc2cc(O)cc(-c3ncc4c(N5CC6CCC(C5)N6)nc(OCC56CCCN5CC(F)C6)nc4c3F)c12 (stereo not drawn) + COC1C(OC(N)=O)C(O)C(Oc2ccc3c(O)c(NC(=O)c4ccc(O)c(CC=C(C)C)c4)c(=O)oc3c2C)OC1(C)C ?
output: 95.4

input: I am curious: what viability, T/C value has been reported for C=CC(=O)N1CCN(c2nc(=O)n(-c3c(C)ccnc3C(C)C)c3nc(-c4c(O)cccc4F)c(F)cc23)C(C)C1 (stereo not drawn) + Cc1cccc(N(C)C(=O)C2C(O)CCN2c2nc(C)cc(C(F)(F)F)c2C#N)c1 ?
output: 104

input: viability, T/C lookup needed for CC(C)n1c(=O)n(C)c2cnc3cc(F)c(-c4ccc(OCCCN5CCCCC5)nc4)cc3c21 + Nc1ccc(C#CCN(C(=O)Cc2ncc(C(F)(F)F)cc2C(F)(F)F)c2ccc(F)cc2)nn1 , thanks.
output: 122

input: Report viability, T/C for COc1cccc2c1C(=O)c1c(O)c3c(c(O)c1C2=O)CC(O)(C(=O)CO)CC3OC1CC(N)C(O)C(C)O1 (stereo not drawn) + COC1C(OC(N)=O)C(O)C(Oc2ccc3c(O)c(NC(=O)c4ccc(O)c(CC=C(C)C)c4)c(=O)oc3c2C)OC1(C)C please.
output: 1.27

input: Looking for the measured viability, T/C of CNCc1ccc(-c2[nH]c3cc(F)cc4c3c2CCNC4=O)cc1 + Cc1cccc(N(C)C(=O)C2C(O)CCN2c2nc(C)cc(C(F)(F)F)c2C#N)c1 , can you help?
output: 116

input: Return reported viability, T/C; argument: CC1COCCN1c1cc(-c2ccnn2C)c2ccnc(-c3ccn[nH]3)c2n1 (stereo not drawn) + Cc1cccc(N(C)C(=O)C2C(O)CCN2c2nc(C)cc(C(F)(F)F)c2C#N)c1
output: 4.72

====

- Tested on: 415267-285-R-J2-PDC complex spheroid viability
- assayInfo: Anticancer human tumor 415267-285-R-J2-PDC cell line growth inhibition [POLQ];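 also: spheroids exposed to compounds for one week before readout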;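 as to viability, T/C: luminescence used as stand-in measure of viable cells; 100% = DMSO vehicle control viability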
- conditionContext: second compound 0.316 µM; first compound 1 µM; stronger effect = lower value
- Experimental: Multicellular complex tumor spheroid response to Polymerase (POL) inhibitors (novobiocin, ART-558, RP6685) in combination with a variety of drugs and investigational agents in selected tumor cell lines The POL inhibitors (novobiocin, ART-558, and RP6685) were evaluated both individually and in combination with standard of care and investigational anticancer small molecules within a complex spheroid model of solid tumors. . […]
valueKind: viability, T/C (%)
Lab book: enter the figure in %, no units written.

input: What reported viability, T/C corresponds to CNCc1ccc(-c2[nH]c3cc(F)cc4c3c2CCNC4=O)cc1 + Cc1cccc(N(C)C(=O)C2C(O)CCN2c2nc(C)cc(C(F)(F)F)c2C#N)c1 on 415267-285-R-J2-PDC complex spheroid viability?
output: 101

input: Kindly state the measured viability, T/C obtained for O=C(Nc1ccc(O)c(NS(=O)(=O)c2ccc(F)cc2)c1)c1ccc(-c2ccccc2)cc1 + Nc1ccc(C#CCN(C(=O)Cc2ncc(C(F)(F)F)cc2C(F)(F)F)c2ccc(F)cc2)nn1 with 415267-285-R-J2-PDC complex spheroid viability.
output: 94.9

input: API: value(readout= viability, T/C, system= 415267-285-R-J2-PDC complex spheroid viability, query= CC(C)n1c(=O)n(C)c2cnc3cc(F)c(-c4ccc(OCCCN5CCCCC5)nc4)cc3c21 + Cc1cccc(N(C)C(=O)C2C(O)CCN2c2nc(C)cc(C(F)(F)F)c2C#N)c1 )
output: 105

input: Under 415267-285-R-J2-PDC complex spheroid viability: viability, T/C value of CC1COCCN1c1cc(-c2ccnn2C)c2ccnc(-c3ccn[nH]3)c2n1 (configuration not stated) + COC1C(OC(N)=O)C(O)C(Oc2ccc3c(O)c(NC(=O)c4ccc(O)c(CC=C(C)C)c4)c(=O)oc3c2C)OC1(C)C ?
output: 5.08

input: # get_value(readout= viability, T/C, system= 415267-285-R-J2-PDC complex spheroid viability) for C=CC(=O)N1CCN(c2nc(=O)n(-c3c(C)ccnc3C(C)C)c3nc(-c4c(O)cccc4F)c(F)cc23)C(C)C1 (configuration not stated) + Cc1cccc(N(C)C(=O)C2C(O)CCN2c2nc(C)cc(C(F)(F)F)c2C#N)c1
output: 105

input: Write down the reported viability, T/C of O=C(Nc1ccc(O)c(NS(=O)(=O)c2ccc(F)cc2)c1)c1ccc(-c2ccccc2)cc1 + COC1C(OC(N)=O)C(O)C(Oc2ccc3c(O)c(NC(=O)c4ccc(O)c(CC=C(C)C)c4)c(=O)oc3c2C)OC1(C)C , test system: 415267-285-R-J2-PDC complex spheroid viability.
output: 117

input: Field: viability, T/C (415267-285-R-J2-PDC complex spheroid viability). Entry: CCc1c2c(nc3ccc(O)cc13)-c1cc3c(c(=O)n1C2)COC(=O)[C@]3(O)CC + Cc1cccc(N(C)C(=O)C2C(O)CCN2c2nc(C)cc(C(F)(F)F)c2C#N)c1
output: 1.32

====

- System: 415267-285-R-J2-PDC complex spheroid viability
- assayInfo: Anticancer human tumor 415267-285-R-J2-PDC cell line growth inhibition [POLQ];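 also: spheroids exposed to compounds for one week before readout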
- conditionContext: curve of first compound; second compound 3.16 µM
pIC50: −log10 of the molar value.
Give measured pIC50 for each item. Keep answers brief.

input: # get_value(readout= pIC50, system= 415267-285-R-J2-PDC complex spheroid viability) for CCc1cc2c(N3CCc4c(cc(Cn5ccnc5)cc4-c4cn(C)nc4C(F)(F)F)C3=O)cc(C)nc2c(OC)n1 + Cc1cccc(N(C)C(=O)C2C(O)CCN2c2nc(C)cc(C(F)(F)F)c2C#N)c1
output: < 5.00

input: Fill in the recorded pIC50 for this molecule, with 415267-285-R-J2-PDC complex spheroid viability as test system: COc1cc2cc(C(=O)CCC(=O)O)sc2cc1OC + COC1C(OC(N)=O)C(O)C(Oc2ccc3c(O)c(NC(=O)c4ccc(O)c(CC=C(C)C)c4)c(=O)oc3c2C)OC1(C)C
output: < 5.00

input: For 415267-285-R-J2-PDC complex spheroid viability, provide pIC50 of CCCS(=O)(=O)Nc1ccc(F)c(C(=O)c2c[nH]c3ncc(-c4ccc(Cl)cc4)cc23)c1F + Cc1cccc(N(C)C(=O)C2C(O)CCN2c2nc(C)cc(C(F)(F)F)c2C#N)c1 please.
output: < 5.00

input: Return pIC50 measured with 415267-285-R-J2-PDC complex spheroid viability given this molecule: CC1COCCN1c1cc(C2(O)CC3CCC(C2)O3)c2cnn(-c3ccn[nH]3)c2n1 (stereo not given) + COC1C(OC(N)=O)C(O)C(Oc2ccc3c(O)c(NC(=O)c4ccc(O)c(CC=C(C)C)c4)c(=O)oc3c2C)OC1(C)C
output: > 7.50

input: Short answer please: pIC50, 415267-285-R-J2-PDC complex spheroid viability, entry CC(C)n1c(=O)n(C)c2cnc3cc(F)c(-c4ccc(OCCCN5CCCCC5)nc4)cc3c21 + COC1C(OC(N)=O)C(O)C(Oc2ccc3c(O)c(NC(=O)c4ccc(O)c(CC=C(C)C)c4)c(=O)oc3c2C)OC1(C)C
output: < 5.00

====

For each record, write down the corresponding IC50.
- Test system: 415267-285-R-J2-PDC complex spheroid viability
- assayInfo: Anticancer human tumor 415267-285-R-J2-PDC cell line growth inhibition [POLQ];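 also: spheroids exposed to compounds for one week before readout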
- conditionContext: curve of first compound; second compound 0.316 µM

input: Lab note: need IC50 with 415267-285-R-J2-PDC complex spheroid viability for entry CC(C)n1c(=O)n(C)c2cnc3cc(F)c(-c4ccc(OCCCN5CCCCC5)nc4)cc3c21 + Cc1cccc(N(C)C(=O)C2C(O)CCN2c2nc(C)cc(C(F)(F)F)c2C#N)c1 , please look it up.
output: > 10 µM

input: For 415267-285-R-J2-PDC complex spheroid viability, provide IC50 of CCc1cc2c(N3CCc4c(cc(Cn5ccnc5)cc4-c4cn(C)nc4C(F)(F)F)C3=O)cc(C)nc2c(OC)n1 + Cc1cccc(N(C)C(=O)C2C(O)CCN2c2nc(C)cc(C(F)(F)F)c2C#N)c1 please.
output: > 10 µM

input: Hello, I am looking for reported IC50 with 415267-285-R-J2-PDC complex spheroid viability for Nc1ccn(C2OC(CO)C(O)C2(F)F)c(=O)n1 (stereo not given) + Nc1ccc(C#CCN(C(=O)Cc2ncc(C(F)(F)F)cc2C(F)(F)F)c2ccc(F)cc2)nn1 . Could you help?
output: < 0.0316 µM

input: For the record CNCc1ccc(-c2[nH]c3cc(F)cc4c3c2CCNC4=O)cc1 + COC1C(OC(N)=O)C(O)C(Oc2ccc3c(O)c(NC(=O)c4ccc(O)c(CC=C(C)C)c4)c(=O)oc3c2C)OC1(C)C , what value of IC50 is listed for 415267-285-R-J2-PDC complex spheroid viability?
output: > 10 µM

input: Give IC50 (415267-285-R-J2-PDC complex spheroid viability) of the following compound: C#Cc1c(F)ccc2cc(O)cc(-c3ncc4c(N5CC6CCC(C5)N6)nc(OCC56CCCN5CC(F)C6)nc4c3F)c12 (stereo not given) + Nc1ccc(C#CCN(C(=O)Cc2ncc(C(F)(F)F)cc2C(F)(F)F)c2ccc(F)cc2)nn1
output: > 10 µM
